Recorded IC50 by entry
Molecular target: KRAS-PI3Kα interaction (KRAS-Q25A binding to avi-tagged full length PI3Kα) (Homo sapiens (Human), UniProt P42336)
Sequence (P42336 whole entry, looked up, stated change not applied): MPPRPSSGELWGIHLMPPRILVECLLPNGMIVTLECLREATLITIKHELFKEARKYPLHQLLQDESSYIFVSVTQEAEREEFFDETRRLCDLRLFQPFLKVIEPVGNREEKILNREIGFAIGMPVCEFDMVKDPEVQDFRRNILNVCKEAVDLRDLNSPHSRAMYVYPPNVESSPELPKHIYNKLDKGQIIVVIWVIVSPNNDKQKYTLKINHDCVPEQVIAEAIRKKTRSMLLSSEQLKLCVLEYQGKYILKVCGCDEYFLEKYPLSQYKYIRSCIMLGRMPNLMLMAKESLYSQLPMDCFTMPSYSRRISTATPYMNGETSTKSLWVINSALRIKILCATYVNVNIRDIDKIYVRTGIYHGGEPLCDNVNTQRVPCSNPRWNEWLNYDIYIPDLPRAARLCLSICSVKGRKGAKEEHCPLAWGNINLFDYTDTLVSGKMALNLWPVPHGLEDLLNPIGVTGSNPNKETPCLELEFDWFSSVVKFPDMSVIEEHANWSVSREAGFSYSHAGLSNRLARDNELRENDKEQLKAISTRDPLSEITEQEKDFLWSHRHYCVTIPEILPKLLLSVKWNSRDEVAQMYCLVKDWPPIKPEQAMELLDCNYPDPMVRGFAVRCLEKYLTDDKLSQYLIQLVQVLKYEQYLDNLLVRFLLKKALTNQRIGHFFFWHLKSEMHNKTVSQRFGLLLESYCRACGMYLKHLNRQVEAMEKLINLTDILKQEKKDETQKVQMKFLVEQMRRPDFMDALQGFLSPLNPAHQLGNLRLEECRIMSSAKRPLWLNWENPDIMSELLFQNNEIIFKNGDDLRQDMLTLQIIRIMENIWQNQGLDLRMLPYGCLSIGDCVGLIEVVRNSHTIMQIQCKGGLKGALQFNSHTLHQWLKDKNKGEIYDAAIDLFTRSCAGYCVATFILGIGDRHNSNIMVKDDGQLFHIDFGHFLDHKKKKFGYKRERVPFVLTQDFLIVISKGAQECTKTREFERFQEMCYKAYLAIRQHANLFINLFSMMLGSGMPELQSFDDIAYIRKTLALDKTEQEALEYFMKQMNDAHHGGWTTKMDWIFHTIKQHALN
Sequence (P27986 whole entry partner, looked up): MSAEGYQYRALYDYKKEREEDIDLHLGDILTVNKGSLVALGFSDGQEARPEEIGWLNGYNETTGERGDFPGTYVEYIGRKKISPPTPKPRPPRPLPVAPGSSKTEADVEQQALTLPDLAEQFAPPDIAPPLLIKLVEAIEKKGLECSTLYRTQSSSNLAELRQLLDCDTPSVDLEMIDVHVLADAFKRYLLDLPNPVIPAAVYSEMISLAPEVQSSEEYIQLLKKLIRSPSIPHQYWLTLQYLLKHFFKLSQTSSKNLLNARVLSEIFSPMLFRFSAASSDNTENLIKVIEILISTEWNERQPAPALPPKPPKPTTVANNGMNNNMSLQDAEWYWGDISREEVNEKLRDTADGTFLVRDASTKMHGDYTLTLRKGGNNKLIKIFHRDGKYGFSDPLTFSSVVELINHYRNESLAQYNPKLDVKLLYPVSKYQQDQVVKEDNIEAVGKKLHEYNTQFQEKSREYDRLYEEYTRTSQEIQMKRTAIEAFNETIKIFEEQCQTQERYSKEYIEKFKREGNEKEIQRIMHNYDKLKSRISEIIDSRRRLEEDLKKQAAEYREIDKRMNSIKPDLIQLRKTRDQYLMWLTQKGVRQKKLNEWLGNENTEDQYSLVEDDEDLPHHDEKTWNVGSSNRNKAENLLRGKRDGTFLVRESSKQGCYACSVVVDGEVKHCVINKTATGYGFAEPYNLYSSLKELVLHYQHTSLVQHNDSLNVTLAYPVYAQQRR
Assay: Disrupting KRAS-PI3Kα interaction by SPR inhibition assay
Conditions: KRAS-Q25A at 20 μM, 25° C.

{"COMPOUND": "C=CC(=O)N1CC[C@H](n2cc(-c3nc(-c4ccc5c(c4)CCNC5)c4ccsc4c3-c3ccc(F)cc3OCCOC)c(C)n2)C1 [compound 59]", "OBSERVATION_TYPE": "IC50", "TEST_RESULT": "< 5 µM"}
{"COMPOUND": "C=CC(=O)N1CCc2ccc(-c3nc(-c4ccc5c(c4)CCNC5)c4ccsc4c3-c3ccc(F)cc3OCCOC)cc2C1 [compound 42]", "OBSERVATION_TYPE": "IC50", "TEST_RESULT": "< 5 µM"}
{"COMPOUND": "COCCOc1cc(F)ccc1-c1c(-c2cccc(C#N)c2)nc(-c2ccc3c(c2)CCNC3)c2ccsc12 [Compound 8]", "OBSERVATION_TYPE": "IC50", "TEST_RESULT": "> 25 µM"}
{"COMPOUND": "C=CC(=O)N1CCC(n2cc(-c3nc(-c4ccc5c(c4)CCNC5)c4ccsc4c3-c3ccc(F)cc3OCCOC)cn2)C1 (centres unmarked) [compound 28]", "OBSERVATION_TYPE": "IC50", "TEST_RESULT": "5 to 25 µM"}

With those in mind, consider the next compound.
Ask | Reported IC50, compound COCCOc1cc(F)ccc1-c1c(-c2cccc(CNC(=O)C(C)(C)C)c2)nc(-c2ccc3c(c2)CCNC3)c2ccsc12 [compound 18] : ____
Reply | < 5 µM
